Hey, just so you know, these numbers are from ChEMBL document CHEMBL1145766.

tgt: UniProt P25100
protocol text: Maximal response via calcium mobilization towards Human Alpha-1D adrenergic receptor as percent rtelative to […] phenylephrine
Assay type: functional
Give Max response for every item shown.
Numbers only, in %.

Below, each entry is followed by its recorded Max response result.
{"entry smiles": "CCCn1ncnc1-c1ccccc1NCC1=NCCN1", "Max response, %": 57}
{"entry smiles": "Cc1n[nH]c(-c2ccccc2NCC2=NCCN2)n1", "Max response, %": 0}
{"entry smiles": "CC(C)n1ncnc1-c1ccccc1NCC1=NCCN1", "Max response, %": 37}

Parameter requested: Max response. Apply to each item below.
1. Cn1ncnc1-c1ccccc1NCC1=NCCN1
2. c1ccc(-c2nc[nH]n2)c(NCC2=NCCN2)c1
3. c1ccc(-c2cc[nH]n2)c(NCC2=NCCN2)c1
4. Cc1nc(-c2ccccc2NCC2=NCCN2)n(C)n1
5. CCCCn1ncnc1-c1ccccc1NCC1=NCCN1

Output:
1. 116
2. 123
3. 54
4. 0
5. 66

Parameter requested: Max response. Apply to each item below.
1. FC(F)(F)Cn1ncnc1-c1ccccc1NCC1=NCCN1
2. CCn1ncnc1-c1ccccc1NCC1=NCCN1

Output:
1: 0; 2: 55

###

tgt: UniProt P25100
protocol text: Inhibitory concentration against radioligand binding to human aAlpha-1D adrenergic receptor, expressed in rat 1 fibroblast cells
Type: cell-based
measurement type: pIC50
Numbers only, as −log10 of the molar value.

Task: Fill in: pIC50 of `c1ccc(-c2cc[nH]n2)c(NCC2=NCCN2)c1` is ___
Output: 7.40

###

tgt: Alpha-1D adrenergic receptor (Homo sapiens, UniProt P25100)
Sequence (P25100 whole entry): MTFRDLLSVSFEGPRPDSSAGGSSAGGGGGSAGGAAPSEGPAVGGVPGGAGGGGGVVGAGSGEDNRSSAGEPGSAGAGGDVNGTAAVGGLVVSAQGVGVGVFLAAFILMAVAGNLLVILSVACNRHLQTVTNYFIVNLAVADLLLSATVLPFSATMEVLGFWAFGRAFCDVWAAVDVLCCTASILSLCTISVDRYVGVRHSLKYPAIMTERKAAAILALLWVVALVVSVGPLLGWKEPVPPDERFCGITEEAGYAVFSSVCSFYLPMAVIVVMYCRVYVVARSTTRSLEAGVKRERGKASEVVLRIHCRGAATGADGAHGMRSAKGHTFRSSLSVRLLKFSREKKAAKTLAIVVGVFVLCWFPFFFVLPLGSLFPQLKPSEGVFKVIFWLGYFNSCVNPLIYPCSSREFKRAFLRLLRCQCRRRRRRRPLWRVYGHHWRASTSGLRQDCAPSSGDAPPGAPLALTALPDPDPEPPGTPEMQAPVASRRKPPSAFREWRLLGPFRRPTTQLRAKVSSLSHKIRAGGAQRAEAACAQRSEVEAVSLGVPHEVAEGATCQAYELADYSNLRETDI
protocol text: Agonism of recombinant human alpha-1D adrenergic receptor, expressed in rat 1 fibroblast cells
measurement type: EC50 (nM)
Answers are plain numbers, in nM.

Below, each entry is followed by its recorded EC50 result.
{"entry smiles": "CCn1ncnc1-c1ccccc1NCC1=NCCN1", "quantity unit": "nM", "EC50": 126}
{"entry smiles": "Cn1ccc(-c2ccccc2NCC2=NCCN2)n1", "quantity unit": "nM", "EC50": 15.8}
{"entry smiles": "c1ccc(-c2cc[nH]n2)c(NCC2=NCCN2)c1", "quantity unit": "nM", "EC50": 20}
{"entry smiles": "Cn1cccc1-c1ccccc1NCC1=NCCN1", "quantity unit": "nM", "EC50": 251}
{"entry smiles": "c1ccc(-c2cn[nH]c2)c(NCC2=NCCN2)c1", "quantity unit": "nM", "EC50": 20}
{"entry smiles": "Cn1ccnc1-c1ccccc1NCC1=NCCN1", "quantity unit": "nM", "EC50": 200}
{"entry smiles": "CCCCn1ncnc1-c1ccccc1NCC1=NCCN1", "quantity unit": "nM", "EC50": 398}
{"entry smiles": "CCCn1ncnc1-c1ccccc1NCC1=NCCN1", "quantity unit": "nM", "EC50": 251}

Parameter requested: EC50. Apply to each item below.
1. CC(C)n1ncnc1-c1ccccc1NCC1=NCCN1
2. Cn1ncnc1-c1ccccc1NCC1=NCCN1
3. c1ccc(-c2nc[nH]n2)c(NCC2=NCCN2)c1

Output:
[3160, 63.1, 3.98]
